biological target: FLNA pentapeptide of SEQ ID NO: 1 (Bn-VAKGL) (Homo sapiens); assay: FITC-NLX-based FLNA screening assay (inhibition of FITC-naloxone binding to Bn-VAKGL on streptavidin plates); conditions: FLNA-binding compound 0.1 μM; 10 nM FITC-NLX; read-out: Percent Binding Inhibition
Assay readout: inhibition at 0.1 µM (%)
A number alone suffices; assume %.

GET /values?readout=inhibition at 0.1 µM&system=FLNA pentapeptide of SEQ ID NO: 1 (Bn-VAKGL) (Homo sapiens)&item= CC(=O)c1ccc(S(=O)(=O)N2CCOC23CCNCC3)cc1
35.7

GET /values?readout=inhibition at 0.1 µM&system=FLNA pentapeptide of SEQ ID NO: 1 (Bn-VAKGL) (Homo sapiens)&item= COc1ccc(CN2CCC3(CC2)OCCN3S(=O)(=O)c2ccc(OC)cc2)cc1
36

GET /values?readout=inhibition at 0.1 µM&system=FLNA pentapeptide of SEQ ID NO: 1 (Bn-VAKGL) (Homo sapiens)&item= CNc1ccc(S(=O)(=O)N2CCC3(CC2)OCCN3S(=O)(=O)c2ccc(NC)cc2)cc1
46.4

GET /values?readout=inhibition at 0.1 µM&system=FLNA pentapeptide of SEQ ID NO: 1 (Bn-VAKGL) (Homo sapiens)&item= CC1CCC(C(C)C)C(OCC(O)CN2CCN(CCN3CCOCC3)CC2)C1 (stereo not shown)
51.1
